Collected self-cleavage values appear next to each entry.
B1: Osa-1-4 twister ribozyme (parent)
chain: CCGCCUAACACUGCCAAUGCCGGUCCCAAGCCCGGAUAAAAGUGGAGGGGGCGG

# Variants of: B1
# ASSAY_NAME: self-cleavage, relative activity (ratio to wild type); higher = more cleavage; co-transcriptional

>  <MUTATION_KEY>
G23A U43A

>  <self-cleavage>
0.1

$$$$
>  <MUTATION_KEY>
C15G G53C

>  <self-cleavage>
0.05

$$$$
>  <MUTATION_KEY>
C52G U24G

>  <self-cleavage>
0.06

$$$$
>  <MUTATION_KEY>
A36C G51A

>  <self-cleavage>
0.28

$$$$
>  <MUTATION_KEY>
A28G G22U

>  <self-cleavage>
0.1

$$$$
>  <MUTATION_KEY>
G45C G49C

>  <self-cleavage>
0.04

$$$$
>  <MUTATION_KEY>
A28U G51C

>  <self-cleavage>
0.08

$$$$
>  <MUTATION_KEY>
C52G G13A

>  <self-cleavage>
0.12

$$$$
>  <MUTATION_KEY>
G44U G53U

>  <self-cleavage>
0.3

$$$$
>  <MUTATION_KEY>
G50C U18G

>  <self-cleavage>
0.75

$$$$
>  <MUTATION_KEY>
A16U A17G

>  <self-cleavage>
0.96

$$$$
>  <MUTATION_KEY>
A46G G49U

>  <self-cleavage>
0.03

$$$$
>  <MUTATION_KEY>
A17U A28U

>  <self-cleavage>
0.97

$$$$
>  <MUTATION_KEY>
G13A G30U

>  <self-cleavage>
0.02

$$$$
>  <MUTATION_KEY>
G30A

>  <self-cleavage>
0.04

$$$$
>  <MUTATION_KEY>
G47U G49A

>  <self-cleavage>
0.05

$$$$
>  <MUTATION_KEY>
A16U A41U

>  <self-cleavage>
0.97

$$$$
>  <MUTATION_KEY>
A7U C11U

>  <self-cleavage>
0.05

$$$$
>  <MUTATION_KEY>
A28U G49A

>  <self-cleavage>
0.08

$$$$
>  <MUTATION_KEY>
C32U G45C

>  <self-cleavage>
0.03

$$$$
>  <MUTATION_KEY>
C21U C25G

>  <self-cleavage>
0.14

$$$$
>  <MUTATION_KEY>
G44C G45C

>  <self-cleavage>
0.08

$$$$
>  <MUTATION_KEY>
G19A G47U

>  <self-cleavage>
0.07

$$$$
>  <MUTATION_KEY>
A10C C27A

>  <self-cleavage>
0.06

$$$$
>  <MUTATION_KEY>
U18G U37G

>  <self-cleavage>
0.85

$$$$
>  <MUTATION_KEY>
G48C U18C

>  <self-cleavage>
0.1

$$$$
>  <MUTATION_KEY>
A28U C52A

>  <self-cleavage>
0.93

$$$$
>  <MUTATION_KEY>
C14U C52A

>  <self-cleavage>
0.21

$$$$
>  <MUTATION_KEY>
A29G A7G

>  <self-cleavage>
0.11

$$$$
>  <MUTATION_KEY>
C11G G44A

>  <self-cleavage>
0.17

$$$$
>  <MUTATION_KEY>
A16U G54U

>  <self-cleavage>
0.94

$$$$
>  <MUTATION_KEY>
C27G G19U

>  <self-cleavage>
0.04

$$$$
>  <MUTATION_KEY>
G23A G49A

>  <self-cleavage>
0.06

$$$$
>  <MUTATION_KEY>
A7G A8G

>  <self-cleavage>
0.28

$$$$
>  <MUTATION_KEY>
A28U G34A

>  <self-cleavage>
0.39

$$$$
>  <MUTATION_KEY>
A28G G49U

>  <self-cleavage>
0.06

$$$$
>  <MUTATION_KEY>
C27A G48C

>  <self-cleavage>
0.05

$$$$
>  <MUTATION_KEY>
C33G G23C

>  <self-cleavage>
0.03

$$$$
>  <MUTATION_KEY>
C25G G23A

>  <self-cleavage>
0.06

$$$$
>  <MUTATION_KEY>
A28U C31A

>  <self-cleavage>
0.03

$$$$
>  <MUTATION_KEY>
A36C A41G

>  <self-cleavage>
0.13

$$$$
>  <MUTATION_KEY>
C20U G19A

>  <self-cleavage>
0.9

$$$$
>  <MUTATION_KEY>
A7G U12A

>  <self-cleavage>
0.16

$$$$
>  <MUTATION_KEY>
A28C A8G

>  <self-cleavage>
0.17

$$$$
>  <MUTATION_KEY>
G45U U18C

>  <self-cleavage>
0.14

$$$$
>  <MUTATION_KEY>
A39C A7G

>  <self-cleavage>
0.12

$$$$
>  <MUTATION_KEY>
G34U G54C

>  <self-cleavage>
0.57

$$$$
>  <MUTATION_KEY>
A28C A39G

>  <self-cleavage>
0.99

$$$$
>  <MUTATION_KEY>
A41C C14A

>  <self-cleavage>
0.07

$$$$
>  <MUTATION_KEY>
G22A G44C

>  <self-cleavage>
0.92

$$$$
>  <MUTATION_KEY>
A39G G48C

>  <self-cleavage>
0.08

$$$$
>  <MUTATION_KEY>
A36C U12A

>  <self-cleavage>
0.13

$$$$
>  <MUTATION_KEY>
A16C G44C

>  <self-cleavage>
0.97

$$$$
>  <MUTATION_KEY>
A46U C21G

>  <self-cleavage>
0.02

$$$$
>  <MUTATION_KEY>
C20A G44C

>  <self-cleavage>
0.76

$$$$
>  <MUTATION_KEY>
A40C C14U

>  <self-cleavage>
0.05

$$$$
>  <MUTATION_KEY>
C11A G34C

>  <self-cleavage>
0.07

$$$$
>  <MUTATION_KEY>
A36U C27U

>  <self-cleavage>
0.28

$$$$
>  <MUTATION_KEY>
A28U C52U

>  <self-cleavage>
0.97

$$$$
>  <MUTATION_KEY>
A40U U43A

>  <self-cleavage>
0.18

$$$$
>  <MUTATION_KEY>
A40C C52G

>  <self-cleavage>
0.09

$$$$
>  <MUTATION_KEY>
A41G G35U

>  <self-cleavage>
0.51

$$$$
>  <MUTATION_KEY>
C32A G51C

>  <self-cleavage>
0.03

$$$$
>  <MUTATION_KEY>
A8G G53C

>  <self-cleavage>
0.08

$$$$
>  <MUTATION_KEY>
A46C G19C

>  <self-cleavage>
0.02

$$$$
>  <MUTATION_KEY>
C31G G35C

>  <self-cleavage>
0.04

$$$$
>  <MUTATION_KEY>
C15U U18C

>  <self-cleavage>
0.52

$$$$
>  <MUTATION_KEY>
C15A G30C

>  <self-cleavage>
0.04

$$$$
>  <MUTATION_KEY>
A41C G23A

>  <self-cleavage>
0.29

$$$$
>  <MUTATION_KEY>
C32G G51U

>  <self-cleavage>
0.07

$$$$
>  <MUTATION_KEY>
G23C G34A

>  <self-cleavage>
0.06

$$$$
>  <MUTATION_KEY>
G51U G53U

>  <self-cleavage>
0.12

$$$$
>  <MUTATION_KEY>
A39C C15G

>  <self-cleavage>
0.16

$$$$
>  <MUTATION_KEY>
C32G G42A

>  <self-cleavage>
0.09

$$$$
>  <MUTATION_KEY>
C21G C9U

>  <self-cleavage>
0.04

$$$$
>  <MUTATION_KEY>
A17C G19U

>  <self-cleavage>
0.04

$$$$
>  <MUTATION_KEY>
A7C U24G

>  <self-cleavage>
0.01

$$$$
>  <MUTATION_KEY>
A29C G45C

>  <self-cleavage>
0.01

$$$$
>  <MUTATION_KEY>
A39C G45U

>  <self-cleavage>
0.06

$$$$
>  <MUTATION_KEY>
A36G A38U

>  <self-cleavage>
1.01

$$$$
>  <MUTATION_KEY>
C20U G42C

>  <self-cleavage>
0.22

$$$$
